# Assayed System: Neutrophil elastase (Homo sapiens)
# Sequence (whole entry): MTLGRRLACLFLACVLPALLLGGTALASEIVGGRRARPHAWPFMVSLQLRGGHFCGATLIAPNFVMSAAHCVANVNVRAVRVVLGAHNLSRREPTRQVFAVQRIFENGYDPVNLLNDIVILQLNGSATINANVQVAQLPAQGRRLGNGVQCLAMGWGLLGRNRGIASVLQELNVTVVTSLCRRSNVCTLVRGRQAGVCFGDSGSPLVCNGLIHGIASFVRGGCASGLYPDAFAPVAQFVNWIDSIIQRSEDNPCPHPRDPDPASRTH
# Protocol Notes: Rate of deacylation by human leukocyte elastase
Provide the recorded k off for the entries that follow.
The answer is to be given in s⁻¹; state only the numeric part.

# input k off for `CC(C)Nc1nc2ccccc2c(=O)o1` ?
# output 0.003

# input k off for `CNc1nc2cccc(C)c2c(=O)o1` ?
# output 0.15

# input k off for `CCCNc1nc2cccc(C)c2c(=O)o1` ?
# output 0.00034

# input k off for `CCCCNc1nc2cccc(CC)c2c(=O)o1` ?
# output 0.00053
